- TESTED_TARGET: T1, mouse SIRPα on cells (mouse, UniProt P97797 32-513)
- T1 construct: whole, on cells
- T1 sequence (looked up): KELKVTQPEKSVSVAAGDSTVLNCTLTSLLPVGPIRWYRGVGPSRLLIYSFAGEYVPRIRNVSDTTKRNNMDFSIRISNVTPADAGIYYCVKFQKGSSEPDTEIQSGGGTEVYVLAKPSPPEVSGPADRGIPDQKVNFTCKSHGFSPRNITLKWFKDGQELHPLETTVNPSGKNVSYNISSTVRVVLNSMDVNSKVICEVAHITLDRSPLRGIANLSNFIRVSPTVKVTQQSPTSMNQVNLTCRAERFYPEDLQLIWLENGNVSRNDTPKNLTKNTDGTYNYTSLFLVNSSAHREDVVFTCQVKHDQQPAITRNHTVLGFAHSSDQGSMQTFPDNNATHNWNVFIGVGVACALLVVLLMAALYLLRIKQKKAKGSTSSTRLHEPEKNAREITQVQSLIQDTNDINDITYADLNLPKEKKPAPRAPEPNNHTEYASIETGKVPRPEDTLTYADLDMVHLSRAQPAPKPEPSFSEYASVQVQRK
- PROTOCOL_SUMMARY: flow cytometry;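 note: antibodies tested at 1 µg/ml for 30 min on ice against receptor-expressing cells, detected with a PE-labelled secondary antibody, read as mean fluorescence intensity relative to background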
RESULT_TYPE: FOB (fold over background)
// units = fold over background; emit number, no label

Exercise: Give the measured FOB of SB-8 (antibody, V domains shown, IgG; also called SB-8 (p)) VH: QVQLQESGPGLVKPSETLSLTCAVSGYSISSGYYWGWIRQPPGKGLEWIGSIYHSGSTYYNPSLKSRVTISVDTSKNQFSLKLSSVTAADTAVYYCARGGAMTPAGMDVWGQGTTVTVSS VL: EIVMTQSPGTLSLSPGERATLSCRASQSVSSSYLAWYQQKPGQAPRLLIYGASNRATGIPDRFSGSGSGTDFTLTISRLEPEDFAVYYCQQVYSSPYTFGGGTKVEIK .
Key: 1.2

Exercise: Give the measured FOB of SB-4 (antibody, V domains shown, IgG) VH: QVQLVQSGAEVKKPGASVKVSCKASGYTFTSYGISWVRQAPGQGLEWMGWISAYNGNTNYAQKLQGRVTMTTDTSTSTAYMELRSLRSDDTAVYYCARSGTHFGTYSYSNWFDPWGQGTLVTVSS VL: EIVLTQSPGTLSLSPGERATLSCRASQSVSSSYLAWYQQKPGQAPRLLIYGASSRATGIPDRFSGSGSGTDFTLTISRLEPEDFAVYYCQQYADAPITFGGGTKVEIK .
Key: 0.9

Exercise: Give the measured FOB of SB-39 (antibody, V domains shown, IgG) VH: QVQLQESGPGLVKPSETLSLTCAVSGYSISSGYYWAWIRQPPGKGLEWIGSIYHSGSTYYNPSLKSRVTISVDTSKNQFSLKLSSVTAADTAVYYCARGGSNYGDYGRFDYWGQGTLVTVSS VL: DIQMTQSPSSLSASVGDRVTITCRASQSISSYLNWYQQKPGKAPKLLIYGASSLQSGVPSRFSGSGSGTDFTLTISSLQPEDFATYYCQQSYDFPLTFGGGTKVEIK .
Key: 1.1

Exercise: Give the measured FOB of SB-24 (antibody, V domains shown, IgG) VH: QVQLQESGPGLVKPSETLSLTCAVSGYSISSGYYWAWIRQPPGKGLEWIGSIYHSGSTYYNPSLKSRVTISVDTSKNQFSLKLSSVTAADTAVYYCARDRSRGYPVYGMDVWGQGTTVTVSS VL: EIVMTQSPATLSVSPGERATLSCRASQSVSSNLAWYQQKPGQAPRLLIYGASTRATGIPARFSGSGSGTEFTLTISSLQSEDFAVYYCQQLNIHPWTFGGGTKVEIK .
Key: 1.1

Exercise: Give the measured FOB of SB-38 (antibody, V domains shown, IgG) VH: QVQLVQSGAEVKKPGASVKVSCKASGYTFTSYYMHWVRQAPGQGLEWMGIINPSGGSTSYAQKFQGRVTMTRDTSTSTVYMELSSLRSEDTAVYYCARESGTDFGTISYWGQGTLVTVSS VL: DIQMTQSPSSVSASVGDRVTITCRASQGISSWLAWYQQKPGKAPKLLIYAASSLQSGVPSRFSGSGSGTDFTLTISSLQPEDFATYYCQQAVSYPITFGGGTKVEIK .
Key: 1.1

Let's switch to this binder now.
Exercise: Give the measured FOB of SB-36 (antibody, V domains shown, IgG) VH: QVQLVQSGAEVKKPGASVKVSCKASGYTFTSYYMHWVRQAPGQGLEWMGIINPSGGSTSYAQKFQGRVTMTRDTSTSTVYMELSSLRSEDTAVYYCAREGPEQLWYLDYWGQGTLVTVSS VL: DIQMTQSPSSVSASVGDRVTITCRASQGISSWLAWYQQKPGKAPKLLIYAASSLQSGVPSRFSGSGSGTDFTLTISSLQPEDFATYYCQQAFSHRTFGGGTKVEIK .
Key: 1.2
